System: HepG2 cells
Settings: HepG2 cells; single number from one experiment
Each entry below carries its reported MMP assays efficacy (%) HepG2.
readout_name: MMP assays efficacy (%) HepG2

molecule	target_entity	readout_name	observed_result
CCCCCCCCCCCCCC[P+](CCCCCC)(CCCCCC)CCCCCC.F[P-](F)(F)(F)(F)F [Trihexyltetradecylphosphonium hexafluorophosphate]	HepG2 cells	MMP assays efficacy (%) HepG2	-91
Nc1nc2ccc([N+](=O)[O-])cc2s1	HepG2 cells	MMP assays efficacy (%) HepG2	-89
O=C(O)C(=O)Cc1c[nH]c2ccccc12	HepG2 cells	MMP assays efficacy (%) HepG2	-89
CCCCCCCC[N+](C)(CCCCCCCC)CCCCCCCC.[Cl-] [N-Methyl-N,N-dioctyloctan-1-aminium chloride]	HepG2 cells	MMP assays efficacy (%) HepG2	-89
Cc1cc(N)c2cc(NC(=O)Nc3ccc4nc(C)cc(N)c4c3)ccc2n1.Cl.Cl [Aminoquinuride dihydrochloride]	HepG2 cells	MMP assays efficacy (%) HepG2	-90

====

Test system: HepG2 cells
Assay: cells
Conditions: Homo sapiens, HepG2, read-out: MMP assays IC50 (µM) HepG2
log10 of IC50 overview
readout_name: log10 of IC50 (log10 of the value in µM)

compound	target_entity	readout_name	observed_result
CCc1c(C(=O)NN2CCCCC2)nn(-c2ccc(Cl)cc2Cl)c1-c1ccc(Br)cc1 [Surinabant]	HepG2 cells	log10 of IC50	1.30
COC(=O)N(OC)c1ccccc1COc1ccn(-c2ccc(Cl)cc2)n1 [Pyraclostrobin]	HepG2 cells	log10 of IC50	0.10
C=C1/C(=C\C=C2/CCC[C@]3(C)[C@@H]([C@H](C)CCCC(C)(C)O)CC[C@@H]23)C[C@@H](O)C[C@@H]1O [Calcitriol]	HepG2 cells	log10 of IC50	1.19
Cc1ccc2c(Br)cc(Br)c(O)c2n1 [Broquinaldol]	HepG2 cells	log10 of IC50	1.10
COc1cccc2c1C(=O)c1c(O)c3c(c(O)c1C2=O)C[C@@](O)(C(=O)CO)C[C@@H]3O[C@H]1C[C@H](N)[C@H](O[C@@H]2CCCCO2)[C@H](C)O1 [Pirarubicin]	HepG2 cells	log10 of IC50	-0.16
CC(C)C(=O)OCC(=O)[C@@]12O[C@H](C3CCCCC3)O[C@@H]1C[C@H]1[C@@H]3CCC4=CC(=O)C=C[C@]4(C)[C@H]3[C@@H](O)C[C@@]12C [Ciclesonide]	HepG2 cells	log10 of IC50	1.19
CC1CCCCC1NC(=O)Nc1ccccc1 (stereo not drawn) [Siduron]	HepG2 cells	log10 of IC50	1.55
Cc1ccc(C(C)(C)C)c(O)c1 [Compound 2-tert-Butyl-5-methylphenol]	HepG2 cells	log10 of IC50	0.70
C[C@]12CC[C@H]3C(=CCc4cc(O)ccc43)[C@@H]1CCC2=O [Equilin]	HepG2 cells	log10 of IC50	1.50
Nc1ccccc1N [1,2-Phenylenediamine]	HepG2 cells	log10 of IC50	0.40
Oc1c2ccccc2c2c3c(cccc13)N=N2 [SP600125]	HepG2 cells	log10 of IC50	0.19
Cc1ccc2c(c1N)C(=O)c1ccccc1C2=O [Compound 1-Amino-2-methylanthraquinone]	HepG2 cells	log10 of IC50	0.40
O=S(=O)(Oc1ccc(Cl)cc1)c1ccc(Cl)cc1 [Chlorfenson]	HepG2 cells	log10 of IC50	1.65
Cc1cc(Cc2cc(C)cc(C(C)(C)C)c2O)c(O)c(C(C)(C)C)c1	HepG2 cells	log10 of IC50	0.30
Oc1ccc(C2(c3ccc(O)cc3)CCCCC2)cc1 [Bisphenol Z]	HepG2 cells	log10 of IC50	1.30
CCCCCCCCCCCCOC(=O)c1cc(O)c(O)c(O)c1 [Dodecyl gallate]	HepG2 cells	log10 of IC50	0.90
O=c1oc2ccccc2c(O)c1C1CCCc2ccccc21 (stereo not drawn) [Coumatetralyl]	HepG2 cells	log10 of IC50	1.55
Oc1c(Cl)c(Cl)cc(Cl)c1Cl [2,3,5,6-Tetrachlorophenol]	HepG2 cells	log10 of IC50	0.95

====

Test system: rat primary hepatocytes
Experiment: MMP assay in rat primary hepatocytes
Conditions: rat hepatocytes; mean ± SD of three experiments
readout_name: MMP assays efficacy (%) Rat Hepatocytes

                                   compound            target_entity  observed_result
0             CCCCCCCCCCCCOC(=O)c1ccc(O)cc1  rat primary hepatocytes         inactive
1  C[C@H](/C=C/[C@H](C)C(C)(C)O)[C@H]1CC[C@H]2/C(=C/C=C3C[C@@H](O)C[C@H](O)C3)CCC[C@]12C  rat primary hepatocytes         inactive
2  CC1C2CC(CC2C2CCCC(O)C2)C1(C)C (stereo not drawn)  rat primary hepatocytes         inactive

====

Data export: MMP assays efficacy (%) Rat Hepatocytes values recorded with rat primary hepatocytes.
readout_name: MMP assays efficacy (%) Rat Hepatocytes

compound	observed_result
C[C@]12CCC(=O)C[C@@H]1CC[C@@H]1[C@@H]2CC[C@]2(C)[C@@H](O)CC[C@@H]12 [Compound 5alpha-Dihydrotestosterone]	inactive
CO/C=C(/C(=O)OC)c1ccccc1COc1cccc(C(F)(F)F)n1	-101+6%
COC1C(O)CC(OC2CC(Oc3cc4cc5c(c(O)c4c(O)c3C)C(=O)[C@@H](OC3CC(OC4CC(OC6CC(C)(O)C(OC(C)=O)C(C)O6)C(O)C(C)O4)C(O)C(C)O3)[C@H]([C@H](OC)C(=O)[C@@H](O)[C@@H](C)O)C5)OC(C)C2OC(C)=O)OC1C (stereo partly drawn)	inactive

====

Below is a list of entries, each paired with its recorded II-ADP, % of control (O2 consumption rate) value.
Test system: isolated rat liver mitochondria
Assay: Oxygen consumption, Clark-type oxygen electrode
Assay type: biochemical
Details: 20 µM
readout_name: II-ADP, % of control (O2 consumption rate)

compound	observed_result
CCOCn1c(-c2ccc(Cl)cc2)c(C#N)c(Br)c1C(F)(F)F	80 (54.0) % of control
CO[C@H]1/C=C/O[C@@]2(C)Oc3c(C)c(O)c4c(O)c(c(/C=N/N5CCN(C)CC5)c(O)c4c3C2=O)NC(=O)/C(C)=C\C=C\[C@H](C)[C@H](O)[C@@H](C)[C@@H](O)[C@@H](C)[C@H](OC(C)=O)[C@@H]1C [Rifampicin, reference compound]	95 (84.2) % of control
C=C(c1ccc(C(=O)O)cc1)c1cc2c(cc1C)C(C)(C)CCC2(C)C [Bexarotene, reference compound]	39 (30.1) % of control
O=C1c2ccccc2C(=O)C1C(=O)C(c1ccccc1)c1ccc(Cl)cc1 (centres unmarked)	39 (26.3) % of control
O=C(Nc1ccc(Oc2ccc(Cl)cc2)c(Cl)c1)c1cc(I)cc(I)c1O [Rafoxanide, reference compound]	15 (11.3) % of control

====

Tested on: rat primary hepatocytes
readout_name: MMP assays efficacy (%) Rat Hepatocytes

>>> df
                                   molecule                             readout_name  observed_result
0                   Cl.Nc1ccc(Nc2ccccc2)cc1  MMP assays efficacy (%) Rat Hepatocytes         inactive
1                        O=c1[nH]sc2ccccc12  MMP assays efficacy (%) Rat Hepatocytes         inactive
2  C=C(C)[C@H]1Cc2c(ccc3c2O[C@@H]2COc4cc(OC)c(OC)cc4[C@@H]2C3=O)O1 [Rotenone, reference compound]  MMP assays efficacy (%) Rat Hepatocytes          -86+39%
3  CC1=C(/C=C/C(C)=C/C=C/C(C)=C/C(=O)Nc2ccc(O)cc2)C(C)(C)CCC1  MMP assays efficacy (%) Rat Hepatocytes         inactive

====

System: rat primary hepatocytes
Test: MMP assay in rat primary hepatocytes
Conditions: rat hepatocytes; mean ± SD of three experiments

compound	MMP assays efficacy (%) Rat Hepatocytes
Cc1cc(N)c2cc(NC(=O)Nc3ccc4nc(C)cc(N)c4c3)ccc2n1.Cl.Cl [Aminoquinuride dihydrochloride]	inactive
O=c1c(-c2ccccc2)c1-c1ccccc1 [Diphenylcyclopropenone]	inactive
C[C@@H]1C[C@H]2[C@@H]3CCC4=CC(=O)C=C[C@]4(C)[C@@]3(F)[C@@H](O)C[C@]2(C)[C@@]1(O)C(=O)COC(=O)c1cccc(S(=O)(=O)[O-])c1.[Na+] [Dexamethazone metasulfobenzoate sodium]	inactive
O=C([O-])c1cc(=O)c2c3nc4ccccc4oc-3cc(=O)c2[nH]1.[Na+] [Pirenoxine sodium]	inactive
Cc1ccc2oc(CN(Cc3ccccc3)C(=O)Nc3c(F)cc(F)cc3F)c(-c3ccc(Cl)cc3)c2c1	inactive
CC(C)(C)NCC(O)CSc1nc(-c2ccc(C(N)=O)s2)cs1.Cl (stereo not shown) [Arotinolol hydrochloride]	inactive
Cc1ccc2c(Cl)cc(Cl)c(O)c2n1 [5,7-Dichloro-8-hydroxy-2-methylquinoline]	inactive
